PROCEDURE SUMMARY: Drug excretion in Wistar-Han rat bile at 5 mg/kg, iv
Type: ADME, organism-based
Parameters: dose 5 mg/kg, route intravenous
TEST SETTINGS: read-out: Drug excretion
MEASUREMENT LABEL: dose excreted (%)

{"COMPOUND": "CCCC(Nc1ccc(-n2cnc(C(F)(F)F)c2)cc1)c1ccc(C(=O)NCCC(=O)O)cc1 (single isomer, unassigned)", "MEASUREMENT LABEL": "dose excreted", "VALUE": 57}

----------
PROCEDURE SUMMARY: Apparent permeability across MDCK2 cells
Format: ADME, cell-based, Canis lupus familiaris, MDCK-II
TEST SETTINGS: dog, MDCK

{"MOLECULE": "CCCC(Nc1ccc(-n2cnc(C(F)(F)F)c2)cc1)c1ccc(C(=O)NCCC(=O)O)cc1 (racemic)", "Papp [×10⁻⁶ cm/s]": 0.6}
{"MOLECULE": "CCCC(Oc1ccc(-n2cc(C(F)(F)F)cn2)nc1)c1ccc(C(=O)NCCC(=O)O)cc1 (racemic)", "Papp [×10⁻⁶ cm/s]": 3.4}
{"MOLECULE": "CCCC(Nc1ccc(-n2cc(C(F)(F)F)cn2)cn1)c1ccc(C(=O)NCCC(=O)O)cc1 (racemic)", "Papp [×10⁻⁶ cm/s]": 0.8}
